testProtocol: Human HepG2 cell viability assay in 384 well format
Format: toxicity, cell-based
Set-up: dose 125 nL, time 70.5 hour; concentration not given beside the values
conditionSet: HepG2 cells, read-out: Inhibition
measuredProperty: cytotoxicity at 70.5 h (%)
Write the answer as a number in %, unit excluded.

> print(dat)
                                   compound  resultunit  measuredvalue
1  CC(C)c1nccc([C@H]2C[C@@H]3CCN(Cc4ccco4)C[C@H]3O2)n1           %          -9.27
2  O=C(c1cc2c(s1)CCC2)N1CCCCC1Cn1cccn1 (stereo unspecified)           %          -3.46
3  CCOCCOC(C)C(=O)Nc1ccc2ccn(CCN(C)C)c2c1 (stereo unspecified)           %          -1.63
4  CCN1CCOC(CNCc2ccc(OCc3ccccn3)cc2)C1 (stereo unspecified)           %          -6.17

Value lookup for cytotoxicity at 70.5 h; key = COc1ccc(C(C#N)NC(=O)Cc2ccc(F)c(F)c2)c(OC)c1 (stereo unspecified)
-3.6

Similarly, `CN(CC(=O)NCC1CCCCC1)S(=O)(=O)c1cccnc1` ?
-3.39

----------
testProtocol: Human HepG2 cell viability assay in 384 well format
Format: toxicity, cell-based
Parameters: dose 125 nL, time 70.5 hour; concentration not given beside the values
conditionSet: HepG2 cells, read-out: Inhibition
// reported cytotoxicity at 70.5 h for each item listed
Write the answer as a number in %, unit excluded.

Known cytotoxicity at 70.5 h results, listed for orientation:
> print(dat)
                                   molecule        measuredproperty  measuredvalue
1           Cc1occc1-c1nnc2n1NC(N)=C(C#N)S2  cytotoxicity at 70.5 h          -22.4
2  FC(F)(F)C1CCCn2c(CNCc3cccs3)nnc21 (centres undefined)  cytotoxicity at 70.5 h          -7.88
3  O=C1CCC2(CCCN(C(=O)Cc3ccccn3)C2)N1 (centres undefined)  cytotoxicity at 70.5 h            2.4
4  CC(C)(C)CC(=O)N1CC[C@H]2CC(=O)N(CCc3c[nH]cn3)CC[C@H]2C1  cytotoxicity at 70.5 h          -4.11

Value lookup for cytotoxicity at 70.5 h; key = `O=C(CCCOc1ccccc1F)NCCCC(=O)Nc1cn[nH]c1`
-3.66

Similarly, Cc1cc(O)nc(C2CN(CCO)CCO2)n1 (centres undefined) ?
8.3

Similarly, `O=C(COC1CCCCC1)Nc1ccn(Cc2cccnc2)n1` ?
-7.64

Similarly, `COc1cccc(COCC(=O)N2CCN(CC(C)(C)O)CC2)c1` ?
4.32

----------
testProtocol: Human HepG2 cell viability assay in 384 well format
Assay type: toxicity, cell-based
Design: dose 125 nL, time 70.5 hour; concentration not given beside the values
conditionSet: HepG2 cells, read-out: Inhibition
// reported cytotoxicity at 70.5 h for each item listed
Write the answer as a number in %, unit excluded.

Known cytotoxicity at 70.5 h results, listed for orientation:
> print(dat)
                                   compound        measuredproperty  measuredvalue
1  Cc1ncoc1C(=O)N1CC[C@@H](O)[C@@H](O)[C@H](N2CCC(F)(F)CC2)C1  cytotoxicity at 70.5 h          -2.42
2       Cc1nncn1CCNC(=O)C(C)(C)c1cccc(Cl)c1  cytotoxicity at 70.5 h          -8.68
3  CC(=O)N1CCC2(CCCN(C(=O)c3ccccc3)C2)C1 (configuration not stated)  cytotoxicity at 70.5 h           6.68
4     CN1CCC(CCNC(=O)N2CCN(Cc3ccon3)CC2)CC1  cytotoxicity at 70.5 h           14.9

Value lookup for cytotoxicity at 70.5 h; key = `CCN(C)c1ncnc2c1CCN(C(=O)c1cnccn1)CC2`
-12.8

Similarly, `NC(=O)CN1CCC(c2cc(C(F)(F)F)n3ccnc3n2)CC1` ?
-3.15

Similarly, `CC(C)c1nnc(CN2CCC3(CC2)Nc2ccccc2NC3=O)o1` ?
18

Similarly, `O=C(c1cccnc1)N1CCC(Oc2cccc(C(F)(F)F)c2)CC1` ?
-4.72

Similarly, O=C(O)COc1ccccc1CN1CCCC1c1ccncn1 (configuration not stated) ?
-6.02

Similarly, `CC(=O)N1CCn2cc(CNC(=O)c3cccn3C)nc2C1` ?
-10.7

Similarly, CSc1ncccc1C(=O)NC(C)c1cccc(N2CCOC2=O)c1 (configuration not stated) ?
-10.4

Similarly, CC(=O)NCC(=O)N1Cc2ccnn2CC(COCCN(C)C)C1 (configuration not stated) ?
-6.24

Similarly, OC1CCCN(Cc2cn(CC3CCN(C4CCSCC4)CC3)nn2)C1 (configuration not stated) ?
-2.84

Similarly, CNC(=O)C1CN(C(C)C)CCN1c1nc(C)cc(C)n1 (configuration not stated) ?
-10.7

Similarly, `CN(CC(=O)N1CCC(Oc2ccccc2)CC1)c1cnccn1` ?
-13.9

Similarly, `Cn1cc2ncn(C3CCN(c4ccccc4F)CC3)c(=O)c2n1` ?
-11

----------
// reported cytotoxicity at 70.5 h for each item listed
testProtocol: Human HepG2 cell viability assay in 384 well format
Assay type: toxicity, cell-based
Set-up: dose 125 nL, time 70.5 hour; concentration not given beside the values
conditionSet: HepG2 cells, read-out: Inhibition
Write the answer as a number in %, unit excluded.

> print(dat)
                                   molecule  resultunit  measuredvalue
1  CC(=O)N1N=C(c2ccccc2)OC1C(=O)N(C)CCc1ccccc1 (stereo not drawn)           %             20

Value lookup for cytotoxicity at 70.5 h; key = Cc1cc(C)c(C)c(OCCCNC(=O)NC(C)c2nncn2C)c1 (stereo not drawn)
14.5

Similarly, `COCCN1CCC2(C1)CN(c1ncccn1)C2` ?
-0.0538

Similarly, COCCC(=O)N1CCCC1c1nccc(C)n1 (stereo not drawn) ?
-12.1

Similarly, Cc1cc(C)c(CNC(=O)N2CCCC2c2cccc(F)c2)c(=O)[nH]1 (stereo not drawn) ?
26

----------
testProtocol: Human HepG2 cell viability assay in 384 well format
Format: toxicity, cell-based
Design: dose 125 nL, time 70.5 hour; concentration not given beside the values
conditionSet: HepG2 cells, read-out: Inhibition
// reported cytotoxicity at 70.5 h for each item listed
Write the answer as a number in %, unit excluded.

Known cytotoxicity at 70.5 h results, listed for orientation:
> print(dat)
                                   compound  resultunit  measuredvalue
1  Cc1nc(C)c(C(=O)N2CCCC2(C)C(=O)NC2CCCC2)o1 (stereo unspecified)           %           8.88
2        O=S(=O)(NCCCn1ccc2ccccc21)N1CCCCC1           %           16.7
3     O=C(Cc1cnccn1)N1CCC(c2nccn2CC2CC2)CC1           %           31.6
4    CCC(CC)c1cc(C(=O)N2CCN(CC(N)=O)CC2)on1           %          -6.02
5  CC(C)N1CCO[C@H]2CN(C(=O)c3ccsc3)C[C@H]21           %          -7.23

Value lookup for cytotoxicity at 70.5 h; key = COc1ccccc1OCc1cc(C(=O)N2CCC(C(C)O)CC2)n[nH]1 (stereo unspecified)
-5.66

Similarly, `CS(=O)(=O)N[C@@H]1COC[C@@H]2CN(Cc3ccco3)C[C@@H]21` ?
-16.3

Similarly, CCOCc1cnc2n1CCN(C(=O)c1cn(C)c3ccccc13)C2C (stereo unspecified) ?
8.97

Similarly, Cc1nc(C)n(CC2CCCN2Cc2nc(-c3ccsc3)no2)n1 (stereo unspecified) ?
12.8

Similarly, COc1ccc(C2CCCN2S(=O)(=O)N(C)C)cc1 (stereo unspecified) ?
-6.59

Similarly, `CCc1cc(NCCc2cnccn2)n2nc(C)c(C)c2n1` ?
-5.77

----------
testProtocol: Human HepG2 cell viability assay in 384 well format
Type: toxicity, cell-based
Parameters: dose 125 nL, time 70.5 hour; concentration not given beside the values
conditionSet: HepG2 cells, read-out: Inhibition
measuredProperty: cytotoxicity at 70.5 h (%)
Write the answer as a number in %, unit excluded.

> print(dat)
                                   compound        measuredproperty  measuredvalue
1  CCn1ncc2c1CCCC2NCc1cccc2c1OCCCO2 (stereo unspecified)  cytotoxicity at 70.5 h         -0.304
2  O=C(NCc1ccccn1)[C@@H]1COC[C@H]2CN(C3CCOCC3)C[C@H]21  cytotoxicity at 70.5 h           2.68
3  CCN(C(C)=O)C(c1cccnc1)c1cc(C)cc(C)c1 (stereo unspecified)  cytotoxicity at 70.5 h           6.16
4  CCc1noc(CN(CC)C(=O)CC2C(=O)NCCN2CC=C(C)C)n1 (stereo unspecified)  cytotoxicity at 70.5 h           1.29
5  COc1ccc2nc(C3CC3)cc(C(=O)NCc3ncnn3C)c2c1  cytotoxicity at 70.5 h          0.319

The record that follows has no cytotoxicity at 70.5 h shown yet.
Value lookup for cytotoxicity at 70.5 h; key = `CC(=O)N(C)CC(=O)Nc1ccc(C)cc1OCc1ccccc1`
-1.76
